# Target Under Test: T1, human glucagon receptor (GCGr) (Homo sapiens, UniProt P47871)
# T1 construct: expressed in transfected cells; host or cells: HEK293s or CHO cells
# T1 sequence (P47871 26-477): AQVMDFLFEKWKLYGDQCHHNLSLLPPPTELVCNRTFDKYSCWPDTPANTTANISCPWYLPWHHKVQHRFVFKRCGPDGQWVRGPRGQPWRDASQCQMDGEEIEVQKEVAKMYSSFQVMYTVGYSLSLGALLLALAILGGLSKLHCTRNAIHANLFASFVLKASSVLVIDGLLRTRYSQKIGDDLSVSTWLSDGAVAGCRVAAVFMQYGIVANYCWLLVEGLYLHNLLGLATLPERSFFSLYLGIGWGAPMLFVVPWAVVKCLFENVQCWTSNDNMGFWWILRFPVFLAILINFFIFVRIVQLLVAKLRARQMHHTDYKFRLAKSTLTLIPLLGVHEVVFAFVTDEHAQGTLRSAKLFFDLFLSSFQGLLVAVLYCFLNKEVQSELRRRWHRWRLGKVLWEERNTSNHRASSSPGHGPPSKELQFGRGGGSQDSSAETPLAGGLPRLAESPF
# Experiment Notes: BSA-cAMP assay, cells expressing human glucagon receptor
# Assay type: cell-based
# Condition Set: Batch 1, read-out: hGCGr cAMP activity EC50
Listed molecules paired with reported pEC50
Notebook: values listed as pEC50 are -log10 of the concentration (mol/L).

IP307 (protein) YSEGTFTSDVSSYMERQAIDEFIAWLLKQGAAAGGSGSTASSGSGSATGGGGAATHTCPPC | 5.39

Field: next molecule
Inquiry: # get_value(readout='pEC50', item= IP306 (protein) YSEGTFTSDYSKLLERQAIDEFIAWLLKGGAAAGGSGSTASSGSGSATGGGGAATHTCPPC )
Reply text: 6.66
